System: NCI-H522 lung
Test: NCI tumour cell line growth inhibition, 48 h
assay.metric: TGI

Study these solved cases before continuing.
compound | TGI
Cc1cc2nc3c(C#N)c(-c4ccccc4)/c(=C\Nc4cccc(C(F)(F)F)c4)c(=O)n3c2cc1C | 93.7 µM
CCC1=C(C)C2=NC1=CC1=NC(=C(CC)/C1=C/O)C=C1N=C3C(=C1C)C(=O)C(C(=O)OC)C3=C1NC(=C2)C(C)C1CCC(=O)OC (centres undefined) | > 100 µM
CC(=O)OC1COC(N2C(=O)C(=O)c3cc(Br)c([N+](=O)[O-])cc32)C(OC(C)=O)C1OC(C)=O (centres undefined) | > 100 µM

Continue with the compound presented below.
So what's the measured TGI for this one? Cc1ccc(Cl)cc1Nc1nc(C(F)(F)F)ccc1C(=O)Oc1ccc(Cl)cc1 > 100 µM

###

Recorded log10 TGI for the following compounds
System: U251 CNS
Test: NCI tumour cell line growth inhibition, 48 h
Where a SMILES comes first, the peptide text is derived from it. The star is where a group is joined. Boc = CC(C)(C)OC(=O)*; OBn = c1ccc(CO*)cc1; Bn = c1ccc(C*)cc1
Could you please treat all values as log10 of TGI in µM?

Take a look at these entries with their results.
compound | log10 TGI
CC(C)CC(NC(=O)C(Cc1ccccc1)NC(=O)C(COCc1ccccc1)NC(=O)OC(C)(C)C)C(=O)OCc1ccccc1 (stereo not drawn) (Boc-Ser(Bn)-Phe-Leu-OBn; configuration not given here) | 1.73
Cn1c2ccccc2c2c3c(c4c5ccccc5n(CCCCCC#N)c4c21)C(=O)N(O)C3=O | 0.18

So what's the measured log10 TGI for this one? COC(=O)c1oc2c(C(=O)/C=C/c3ccc(OC)cc3)c(OCCCN3CCCCC3)ccc2c1C 0.46

// returns reported log10 TGI for input CC1OC(OC2C(CO)OC(O[C@H]3CC[C@@]4(C)C(=CC[C@H]5[C@@H]6C[C@@H]7O[C@](O)(CC[C@@H](C)COC8OC(CO)C(O)C(O)C8O)[C@@H](C)[C@@H]7[C@@]6(C)CC[C@@H]54)C3)C(OC3OC(C)C(O)C(O)C3O)C2O)C(O)C(O)C1O (stereo partly specified) 0.56

Which value of log10 TGI has been reported for C/C=C/C1(NS(=O)(=O)c2ccc(C)cc2)CCC(C(C)(C)C)CC1 (stereo unspecified) in the records? 1.47

Tell me the measured log10 TGI of NS(=O)(=O)c1ccc(CNC(=S)NC(=O)Nc2ccc(Cl)c(Cl)c2)cc1 , please. 1.43

I am curious: what log10 TGI value has been reported for O=C(/C=N/O)c1c(-c2ccccc2)[nH]c(-c2ccccc2)c1-c1ccccc1 ? 1.51

Report log10 TGI for COC(=O)c1ccc2c(c1)nc(-c1ccc(Cl)cc1)n2-c1cc(C(C)(C)C)[nH]n1 please. 1.36

Please look up its log10 TGI: CC(=O)O[C@H]1C(=O)[C@]2(C)[C@@H](OC(=O)OCC(O)CO)C[C@H]3OC[C@@]3(OC(C)=O)[C@H]2[C@H](OC(=O)c2ccccc2)[C@]2(O)C[C@H](OC(=O)[C@H](O)[C@@H](NC(=O)c3ccccc3)c3ccccc3)C(C)=C1C2(C)C (stereo partly specified) 1.19

###

Test system: MDA-N
Assay: NCI tumour cell line growth inhibition, 48 h
Listed here are molecules together with their documented TGI.

molecule | target.entity | TGI
CCOC(=O)/C(O)=C(\C=N\C(=S)Nc1ccc(Cl)c(Cl)c1)C(=O)OCC | MDA-N | > 100 µM

Could you share what TGI was measured for Cc1ccc(S(=O)/C=C(\NC(=O)OCc2ccccc2)C(F)(F)F)cc1 (stereo not given) , tested on MDA-N? > 100 µM

Give TGI (MDA-N) of the following molecule: Nc1nc(Cl)cc(NCC2(CO)CC(CCCCc3ccccc3)C2)n1 (stereo not given) > 100 µM

Given the entry CCCCOC(=O)N[C@H]1CCc2cc(OC)c(OC)c(OC)c2-c2ccc(SC)c(=O)cc21 , what TGI was observed with MDA-N? < 0.01 µM

Provide the documented TGI with MDA-N as the system for CC(C)(C)NCC(O)COc1cccc2[nH]c(C#N)cc12 (stereo not given) > 100 µM

Provide the documented TGI with MDA-N as the system for COc1cccc(-n2nnc3c(N)nc(N)nc32)c1 > 100 µM

Reported TGI for MDA-N, given Cc1cc2nc3c(C#N)c(-c4ccccc4)/c(=C\Nc4cccc(C(F)(F)F)c4)c(=O)n3c2cc1C ? > 100 µM

Which TGI is reported with MDA-N for this entry: CCOC(=O)C1(C(=O)OCC)C[C@H]2CON=C2[C@@H]1c1ccc(C(F)(F)F)cc1 ? > 100 µM

Which measured TGI belongs to O=C1/C(=C/c2ccc(O)cc2)CCC1CNc1ccc(Cl)cc1 (stereo not given) , tested on MDA-N? 20.9 µM

Can you look up TGI on MDA-N for COc1ccc(OC)c2c1C[C@@H]1C(C#N)N3[C@H](Cc4c(OC)ccc(OC)c4[C@@H]3C)C(=O)N1[C@H]2C (stereo not given in full) ? 22 µM
